The origin of these recorded values is ChEMBL document CHEMBL2074272.

Target: Solute carrier family 15 member 1 (Rattus norvegicus, UniProt P51574)
Sequence (P51574 whole entry): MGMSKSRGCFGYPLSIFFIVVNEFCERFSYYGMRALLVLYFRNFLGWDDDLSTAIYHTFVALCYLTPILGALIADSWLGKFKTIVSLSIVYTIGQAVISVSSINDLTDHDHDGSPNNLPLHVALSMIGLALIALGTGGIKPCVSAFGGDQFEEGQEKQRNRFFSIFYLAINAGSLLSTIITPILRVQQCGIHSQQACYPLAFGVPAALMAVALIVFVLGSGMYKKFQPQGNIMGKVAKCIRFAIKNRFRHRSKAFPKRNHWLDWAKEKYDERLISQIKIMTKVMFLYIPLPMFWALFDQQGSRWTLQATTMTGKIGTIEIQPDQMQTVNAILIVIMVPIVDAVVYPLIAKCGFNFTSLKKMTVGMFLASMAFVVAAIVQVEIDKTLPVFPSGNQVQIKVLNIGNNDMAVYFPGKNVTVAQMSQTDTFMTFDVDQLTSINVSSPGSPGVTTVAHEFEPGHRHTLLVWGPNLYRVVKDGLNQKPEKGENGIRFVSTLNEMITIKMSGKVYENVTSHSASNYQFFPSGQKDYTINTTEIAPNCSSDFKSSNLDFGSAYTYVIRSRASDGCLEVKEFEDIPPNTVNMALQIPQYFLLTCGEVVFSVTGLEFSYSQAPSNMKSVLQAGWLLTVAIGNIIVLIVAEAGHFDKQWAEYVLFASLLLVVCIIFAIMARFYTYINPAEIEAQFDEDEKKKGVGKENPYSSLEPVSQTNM
Experiment: TP_TRANSPORTER: inhibition of D-Phe-L-Gln uptake in Xenopus laevis oocytes
PROPERTY_NAME: Ki (mM)

1: C[C@H](CS)C(=O)N1CCC[C@H]1C(=O)O
2: CCOC(=O)[C@H](CCc1ccccc1)N[C@@H](C)C(=O)N1CCC[C@H]1C(=O)O
**Query** Sorting by Ki in descending order, would 1 or 2 appear first? Which one? Tell me its label.
**Result** 1
